Where do these numbers come from? They come from patent US12187713B2.

assay: Pharmacokinetic Assay, single oral dose 100 mg/kg (Table 11); format: in vivo; details: mouse, C57 female mice, oral (intragastric), plasma

[
  {
    "compound": "COC[C@@H]1CCCN1Cc1cc2nc(-c3cccc(-c4cccc(-c5nc6cc(CN7CCC[C@H]7C(=O)O)c(OC(F)F)cc6o5)c4C)c3C)oc2cc1OC(F)F [Example 63]",
    "Cmax, ng/mL": 2920
  },
  {
    "compound": "Cc1c(-c2nc3cc(CN4CC5(CC5)C4)c(OC(F)F)cc3o2)cccc1-c1cccc(-c2nc3cc(CN4CCC[C@H]4C(=O)O)c(OC(F)F)cc3o2)c1C [Example 74]",
    "Cmax, ng/mL": 4460
  },
  {
    "compound": "Cc1c(-c2nc3cc(CN4CCCC4)ccc3o2)cccc1-c1cccc(-c2nc3cc(CN4CCC[C@H]4C(=O)O)c(OC(F)F)cc3o2)c1C [Example 98]",
    "Cmax, ng/mL": 1010
  },
  {
    "compound": "Cc1c(-c2nc3ccc(CN4CCCC4)cc3o2)cccc1-c1cccc(-c2nc3cc(CN4CCC[C@H]4C(=O)O)c(OC(F)F)cc3o2)c1C [Example 108]",
    "Cmax, ng/mL": 713
  },
  {
    "compound": "Cc1c(-c2nc3cc(CN4CCC[C@H]4C(=O)O)c(OC(F)F)cc3o2)cccc1-c1cccc(-c2nc3cc(CN4CCCC4)cc(F)c3o2)c1C [Example 95]",
    "Cmax, ng/mL": 2030
  }
]
